- Tested on: NIH3T3/IGF-1R cells
- Experimental Protocol: IGF-I Receptor Growth Assay, 3T3 IGF-1R cells
- Type: cell-based
- Experimental Parameters: Mus musculus, 0.5% FBS, 10 nM IGF-1, read-out: Cell Growth Assays, 3T3 IGF-1R 0.5% FBS
Metric Name: IC50

Enquiry: Entry COc1cccc2c1OC(c1ccc(F)cc1)C([N+](=O)[O-])=C2 (stereo not shown) [Compound A] : reported IC50 = ?
Return: 2500 nM

* * *

- Test system: HER2C7 cells (NIH3T3 engineered to express HER2)
- Experimental Protocol: 3T3/HER2 Cell Growth Assay, 3T3 HER-2 cells
- Type: cell-based
- Experimental Parameters: Mus musculus, NIH3T3, 96 h; 2% FBS; 4 days; read-out: Cell Growth Assays, 3T3 HER-2 2% FBS
Metric Name: pIC50
Interpret pIC50 as the negative base-10 log of the concentration measured in mol/L.

Enquiry: Entry COc1cccc2c1OC(c1ccc(F)cc1)C([N+](=O)[O-])=C2 (stereo not shown) [Compound A] : reported pIC50 = ?
Return: 5.74

* * *

- System: NIH3T3 c7 cells
- Experimental Protocol: Cell growth assay, 3T3 control cells (beside 3T3 IGF-1R)
- Type: cell-based
- Experimental Parameters: Mus musculus, 10% FBS, column beside 3T3 IGF-1R, read-out: Cell Growth Assays, 3T3 10% FBS
Metric Name: IC50 (µM)
Field: numeric (µM). Do not append units.

Enquiry: Entry COc1cccc2c1OC(c1ccc(F)cc1)C([N+](=O)[O-])=C2 (stereo not shown) : reported IC50 = ?
Return: 5.6

The reported numbers originate from patent US5763470A.
